pKi tested on human vasopressin V1b receptor (Homo sapiens (Human)): recorded values
Sequence (P47901 whole entry): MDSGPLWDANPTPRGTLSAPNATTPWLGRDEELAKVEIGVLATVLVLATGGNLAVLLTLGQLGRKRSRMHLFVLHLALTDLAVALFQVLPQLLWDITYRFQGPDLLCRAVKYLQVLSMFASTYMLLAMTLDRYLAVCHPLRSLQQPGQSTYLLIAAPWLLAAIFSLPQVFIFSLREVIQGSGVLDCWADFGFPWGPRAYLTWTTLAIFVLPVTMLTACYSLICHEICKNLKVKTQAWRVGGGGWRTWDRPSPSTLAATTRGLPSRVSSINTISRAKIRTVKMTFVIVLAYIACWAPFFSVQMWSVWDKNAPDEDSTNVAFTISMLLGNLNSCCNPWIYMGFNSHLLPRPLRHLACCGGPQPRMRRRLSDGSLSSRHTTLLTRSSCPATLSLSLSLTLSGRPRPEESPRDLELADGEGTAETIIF
pKi: −log10 of the molar value.

The cases that follow already have their pKi on record.
| compound | target.entity | pKi |
| --- | --- | --- |
| CCOc1ccc(OC)cc1C1(N2CC3(CN(C4CCN(C5COC5)CC4)C3)C2)C(=O)N(S(=O)(=O)c2ccc(OC)cn2)c2ccc(C#N)cc21 (single isomer, unassigned; (+)) [Example 11] | human vasopressin V1b receptor (Homo sapiens (Human)) | > 9.00 |
| CCOc1ccc(OC)cc1C1(N2CC3(CN(C4CCN(C)CC4)C3)C2)C(=O)N(S(=O)(=O)c2ccc(F)cc2)c2ccc(C#N)cc21 (racemic) [Example 16] | human vasopressin V1b receptor (Homo sapiens (Human)) | 7.00 to 8.00 |

// fetch human vasopressin V1b receptor (Homo sapiens (Human)) pKi for CCOc1ccc(OC)cc1[C@]1(N2CC3(CN(C4CCN(C)CC4)C3)C2)C(=O)N(S(=O)(=O)c2ccc(Cl)cn2)c2ccc(C#N)cc21 [Example 34]
> 9.00

Provide value of pKi for this record tested with human vasopressin V1b receptor (Homo sapiens (Human)): CCOc1ccc(OC)cc1[C@]1(N2CC3(CN(C4CCN(C)CC4)C3)C2)C(=O)N(S(=O)(=O)c2cccc(OC)n2)c2ccc(C#N)cc21 [Example 32]
7.00 to 8.00

Return pKi measured with human vasopressin V1b receptor (Homo sapiens (Human)) given this compound: COc1ccc(S(=O)(=O)N2C(=O)C(c3cccnc3C(C)(F)F)(N3CC4(CN(C5CCN(C)CC5)C4)C3)c3cc(C#N)ccc32)nc1 (racemic) [Example 30]
8.00 to 9.00

Observed pKi on human vasopressin V1b receptor (Homo sapiens (Human)) for CCOc1ncccc1C1(N2CC3(CC(N4CCN(C)CC4)C3)C2)C(=O)N(S(=O)(=O)c2ccc(OC)cn2)c2ccc(C#N)cc21 (racemic) [Example 27] , please.
8.00 to 9.00

----------
target.entity: human vasopressin V1a receptor (Homo sapiens (Human), UniProt P37288)
Sequence (P37288 whole entry): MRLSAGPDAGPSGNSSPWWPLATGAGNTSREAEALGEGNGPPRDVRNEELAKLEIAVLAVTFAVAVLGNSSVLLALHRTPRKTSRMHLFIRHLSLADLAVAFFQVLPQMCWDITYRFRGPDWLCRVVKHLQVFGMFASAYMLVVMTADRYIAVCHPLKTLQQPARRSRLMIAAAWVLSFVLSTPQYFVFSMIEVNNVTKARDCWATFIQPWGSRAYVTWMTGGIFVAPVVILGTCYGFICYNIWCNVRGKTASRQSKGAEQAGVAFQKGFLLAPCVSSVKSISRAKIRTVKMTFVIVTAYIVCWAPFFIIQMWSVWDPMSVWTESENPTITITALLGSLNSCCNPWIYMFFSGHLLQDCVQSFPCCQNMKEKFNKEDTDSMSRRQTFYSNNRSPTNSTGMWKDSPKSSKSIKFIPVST
run.description: Vasopressin V1a receptor binding assay
experimental.setup: selectivity quotient, human V1a vs human V1b receptor
assay.readout: Ki(h-V1a)/ Ki(h-V1b)

# example entries with known answers
| molecule | target.entity | Ki(h-V1a)/ Ki(h-V1b) |
| --- | --- | --- |
| COc1ccc(S(=O)(=O)N2C(=O)C(c3ccccc3OC)(N3CC4(CN(C5CCN(C)CC5)C4)C3)c3cc(C#N)ccc32)nc1 (single isomer, unassigned; (+)) [Example 18A] | human vasopressin V1a receptor (Homo sapiens (Human), UniProt P37288) | + (10-<25) |
| CCOc1ccc(OC)cc1C1(N2CC3(CN(C4CCN(C5COC5)CC4)C3)C2)C(=O)N(S(=O)(=O)c2ccc(OC)cn2)c2ccc(C#N)cc21 (racemic) [Example 10] | human vasopressin V1a receptor (Homo sapiens (Human), UniProt P37288) | +++ (>75) |
| COc1ccc(S(=O)(=O)N2C(=O)C(c3cc(OC)ccc3OC)(N3CC4(CN(C5CCN(C)CC5)C4)C3)c3cc(C#N)ccc32)nc1 (racemic) [Example 21] | human vasopressin V1a receptor (Homo sapiens (Human), UniProt P37288) | + (10-<25) |
| CCOc1ccc(OC)cc1C1(N2CC3(CN(C4CCN(C(C)C)CC4)C3)C2)C(=O)N(S(=O)(=O)c2ccc(OC)cn2)c2ccc(C#N)cc21 (racemic) [Example 19] | human vasopressin V1a receptor (Homo sapiens (Human), UniProt P37288) | +++ (>75) |
| CCOc1ccccc1C1(N2CC3(CN(C4CCN(C)CC4)C3)C2)C(=O)N(S(=O)(=O)c2ccc(OC)cn2)c2ccc(C#N)cc21 (racemic) [Example 8] | human vasopressin V1a receptor (Homo sapiens (Human), UniProt P37288) | +++ (>75) |

Request - read-out Ki(h-V1a)/ Ki(h-V1b) | tested on human vasopressin V1a receptor (Homo sapiens (Human), UniProt P37288) | molecule CCOc1ccc(OC)cc1C1(N2CC3(CN(C4CCN(C)CC4)C3)C2)C(=O)N(S(=O)(=O)c2ccc(OC)cn2)c2ccc(C#N)cc21 (single isomer, unassigned; (+)) [Example 1A]
+++ (>75)

Kindly state the measured Ki(h-V1a)/ Ki(h-V1b) obtained for CCOc1cc(F)ccc1C1(N2CC3(CN(C4CCN(C)CC4)C3)C2)C(=O)N(S(=O)(=O)c2ccc(OC)cn2)c2ccc(C#N)cc21 (racemic) [Example 7] with human vasopressin V1a receptor (Homo sapiens (Human), UniProt P37288).
+++ (>75)

Notebook entry, human vasopressin V1a receptor (Homo sapiens (Human), UniProt P37288) assay: Ki(h-V1a)/ Ki(h-V1b) of CCOc1ccc(OC)cc1C1(N2CC3(CN(c4ccnc(C)c4)C3)C2)C(=O)N(S(=O)(=O)c2ccc(OC)cn2)c2ccc(C#N)cc21 (single isomer, unassigned; (+)) [Example 25] = ?
+++ (>75)

What is its Ki(h-V1a)/ Ki(h-V1b) for human vasopressin V1a receptor (Homo sapiens (Human), UniProt P37288)? Entry: COc1ccc(S(=O)(=O)N2C(=O)C(c3cccnc3OC)(N3CC4(CN(C5CCN(C)CC5)C4)C3)c3cc(C#N)ccc32)nc1 (racemic) [Example 22]
+ (10-<25)

Find Ki(h-V1a)/ Ki(h-V1b) (human vasopressin V1a receptor (Homo sapiens (Human), UniProt P37288)) for the entry CCOc1ncccc1C1(N2CC3(CN(C4CCN(C)CC4)C3)C2)C(=O)N(S(=O)(=O)c2ccc(OC)cn2)c2ccc(C#N)cc21 (single isomer, unassigned; (+)) [Example 9A]
+++ (>75)
